All values here come from patent US20120213789A1.

Assay: Percent viability by Trypan blue dye exclusion after SPB treatment
Type: cell-based
Conditions: prostate cell lines, treated cells, SPB 0.5-25.0 mM, untreated cells about 85%
MEASUREMENT LABEL: viability at 72 h

Recorded viability at 72 h (molecule O=C([O-])CCCc1ccccc1.[Na+] [SPB, 4-Phenylbutyric Acid, Sodium Salt] ): 15 to 70%
